# Target desc: Oxysterols receptor LXR-alpha (Homo sapiens, UniProt Q13133)
# Sequence (Q13133 whole entry): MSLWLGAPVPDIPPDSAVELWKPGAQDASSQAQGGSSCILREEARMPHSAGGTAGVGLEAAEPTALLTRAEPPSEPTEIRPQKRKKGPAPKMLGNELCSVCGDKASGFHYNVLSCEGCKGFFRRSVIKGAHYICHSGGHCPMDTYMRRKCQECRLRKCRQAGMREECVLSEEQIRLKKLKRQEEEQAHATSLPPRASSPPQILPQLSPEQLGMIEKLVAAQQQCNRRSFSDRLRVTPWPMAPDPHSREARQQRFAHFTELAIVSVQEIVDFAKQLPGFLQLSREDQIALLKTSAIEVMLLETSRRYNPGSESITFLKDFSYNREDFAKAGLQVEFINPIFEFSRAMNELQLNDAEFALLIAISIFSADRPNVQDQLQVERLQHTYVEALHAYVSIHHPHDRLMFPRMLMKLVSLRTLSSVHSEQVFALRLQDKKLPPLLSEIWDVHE
# Protocol summary: Effective concentration for cofactor association with recombinant liver X receptor-alpha
Experimental endpoint: EC50 (nM)
# output: bare number, implied unit nM

• CC(C)CC[C@@H](O)[C@@H](C)[C@H]1CC[C@H]2[C@@H]3CC=C4C[C@@H](O)CC[C@]4(C)[C@H]3CC[C@]12C [22(R)-HYDROXYCHOLESTEROL] = 15000
• CC(=O)Oc1ccc2c(c1)[C@@]1(C)CCCC(C)(C(=O)OC(=O)[C@@]3(C)CCC[C@]4(C)c5cc(OC(C)=O)ccc5CC[C@@H]34)[C@@H]1CC2 (some centres undefined) = 2

Prompt line: Please give the documented EC50 of CCCc1c(OCCCSc2ccc(CC(=O)O)cc2Cl)ccc2c(C(F)(F)F)noc12
Response line: 35.4

====

# Target desc: Oxysterols receptor LXR-beta (Homo sapiens, UniProt P55055)
# Sequence (P55055 whole entry): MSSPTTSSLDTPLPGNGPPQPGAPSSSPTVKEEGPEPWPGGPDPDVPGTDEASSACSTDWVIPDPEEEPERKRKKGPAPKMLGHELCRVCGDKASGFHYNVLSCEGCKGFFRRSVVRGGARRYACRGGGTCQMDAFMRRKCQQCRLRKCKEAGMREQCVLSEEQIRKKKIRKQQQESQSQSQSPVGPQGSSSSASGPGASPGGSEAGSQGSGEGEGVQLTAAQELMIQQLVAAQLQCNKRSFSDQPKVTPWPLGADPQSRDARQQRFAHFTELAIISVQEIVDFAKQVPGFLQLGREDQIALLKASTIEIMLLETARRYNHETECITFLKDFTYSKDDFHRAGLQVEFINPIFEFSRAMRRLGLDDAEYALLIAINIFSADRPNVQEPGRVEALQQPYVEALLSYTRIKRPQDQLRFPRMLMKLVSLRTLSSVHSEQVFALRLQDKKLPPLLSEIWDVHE
# Protocol summary: Displacement of [3H2]-F3-methyl AA (1) from liver X receptor-beta in SPA assay
Examples of molecules with documented IC50 follow.

• C[C@]1(C(=O)O)CCC[C@]2(C)c3cc(O)ccc3CC[C@@H]12 = > 50000 nM

Please turn your attention to the following entry.
Prompt line: Hello, please tell me recorded IC50 for this one: CC(=O)Oc1ccc2c(c1)[C@@]1(C)CCCC(C)(C(=O)OC(=O)[C@@]3(C)CCC[C@]4(C)c5cc(OC(C)=O)ccc5CC[C@@H]34)[C@@H]1CC2 (some centres not stated)
Response line: 2 nM
